- System: HOP-62 NSCLC
- protocol-notes: NCI-60 one-dose screen, 48 h (100 = growth as untreated, 0 = no growth, -100 = all killed)
- test-conditions: 10 µM unless noted
- Description: Growth inhibition of the HOP-62 human Non-Small Cell Lung tumor cell line is measured as a screen for anti-cancer activity. Cells are grown in 96 well plates and exposed to the test compound for 48 hours. Compounds are tested at a single concentration, which is 10^-5 M for most compounds. The reported endpoint is percent growth (GI% or GIPRCNT), where numbers from 0 - 100% represent growth inhibition, and numbers from -100% - 0 represent cell death. […]
Compounds without any hit were thinned out: in the full panel of roughly 83,000, 20% have a hit.
measured-metric: growth (%)
Kindly provide the numeric value in % only, without the unit symbol.

compound=Oc1ccc(Nc2ccc3ccccc3c2)cc1 target_or_system="HOP-62 NSCLC" numeric_value=57.4
compound=O=C(c1ccc(O)c(Br)c1)c1ccc(O)c(Br)c1 target_or_system="HOP-62 NSCLC" numeric_value=102
compound=O=C1C=CC(=O)N1c1ccc(O)cc1 target_or_system="HOP-62 NSCLC" numeric_value=104

Q. Enter reported growth observed with HOP-62 NSCLC for CC(/C=N/NC(N)=S)Cc1ccc(C(C)C)cc1 (stereo not drawn)
A. 89.1

Q. Enter reported growth observed with HOP-62 NSCLC for CC1=CC(=O)C=CC1(C)C(Cl)(Cl)Cl (stereo not drawn)
A. 84.7

Q. Enter reported growth observed with HOP-62 NSCLC for "Cc1nnc(N/N=C/c2ccc([N+](=O)[O-])o2)[nH]c1=O"
A. 11.3

Q. Enter reported growth observed with HOP-62 NSCLC for COc1cccc2c1C(=O)c1c(O)c3c(c(O)c1C2=O)C[C@@](O)(C(=O)CO)C[C@@H]3OC1CC(OC(C)=O)C(OC(C)=O)C(C)O1 (stereo partly drawn)
A. -25.6

Q. Enter reported growth observed with HOP-62 NSCLC for "Cc1cc(I)nc2ccccc12"
A. 105
